The entries below are paired with their reported CC50.
# ASSAY TEXT: in vitro
# TEST CONDITIONS: African green monkey
Answer in µM, number only, no unit symbol.

INSERT INTO results (smiles_text, recorded_measurement) VALUES
  ('CC(C)C(=O)OC[C@H]1O[C@@H](n2ccc(NO)nc2=O)[C@H](O)[C@@H]1O', 5.3);

Noted for `O=C(CCCCCCCCc1ccc(O)c(O)c1)c1c(O)cccc1O` : its CC50 reads 14
